Data origin, for the record: patent US10189839B2

subject_of_test: full length human TPH1 (Homo sapiens)
Construct: To generate the enzyme, full length human TPH1 is cloned into the plasmid pET20b(+); made in house; host or cells: E. coli
procedure_details: Biochemical in vitro assay using fluorescence readout (TPH1 enzyme activity)
details: Table 1, mean where determined several times
// pIC50 lookup, one value per entry
In plain terms, pIC50 is the concentration in mol/L turned into minus its base-10 logarithm.

Some molecules with recorded pIC50:
> print(dat)
                                   molecule  meas.value
1  CCN(C)C(=O)c1ccc(OCC(=O)N2CCc3nc4n(c3C2c2ccc(Cl)cc2F)CCCC4)c(Cl)n1 (stereo not shown) [Example 1.1.7]        7.60
2  CC(=O)N1CCn2c(nc3c2C(c2ccc(C4CC4)cc2F)N(C(=O)COc2ccc(N4CCOCC4)cc2Cl)CC3)C1 (stereo not shown) [Example 5.2.5]        8.15
3  CN(C)C(=O)c1ccc(OCC(=O)N2CCc3nc4n(c3C2c2sccc2F)CCOC4)c(Cl)n1 (stereo not shown) [Example 6.6.2]        7.54
4  CC(=O)N1CCn2c(nc3c2C(c2ncc(C4CC4)cc2F)N(C(=O)COc2ccc(N4CCOCC4)nc2F)CC3)C1 (stereo not shown) [Example 5.4.8]        7.04
5  O=C(NC1CC1)c1ccc(OCC(=O)N2CCc3nc4n(c3C2c2ccc(C3CC3)cc2F)CCS4)c(Cl)n1 (stereo not shown) [Example 4.3.3]        7.85

Enquiry: Return the recorded pIC50 value; entry: O=C(NC1CC1)c1ccc(OCC(=O)N2CCc3nc4n(c3C2c2ccc(C3CC3)cc2F)CCCC4)c(Cl)n1 (stereo not shown) [Example 1.8.5]
Return: 7.62

Enquiry: Return the recorded pIC50 value; entry: CCc1nc(NS(C)(=O)=O)ccc1OCC(=O)N1CCc2nc3n(c2C1c1cnc(-c2ccccc2)s1)CCCC3 (stereo not shown) [Example 1.16.1]
Return: 6.65

----------
subject_of_test: full length human TPH1 (Homo sapiens, UniProt P17752)
Construct: To generate the enzyme, full length human TPH1 is cloned into the plasmid pET20b(+); made in house; host or cells: E. coli
Sequence (P17752 whole entry): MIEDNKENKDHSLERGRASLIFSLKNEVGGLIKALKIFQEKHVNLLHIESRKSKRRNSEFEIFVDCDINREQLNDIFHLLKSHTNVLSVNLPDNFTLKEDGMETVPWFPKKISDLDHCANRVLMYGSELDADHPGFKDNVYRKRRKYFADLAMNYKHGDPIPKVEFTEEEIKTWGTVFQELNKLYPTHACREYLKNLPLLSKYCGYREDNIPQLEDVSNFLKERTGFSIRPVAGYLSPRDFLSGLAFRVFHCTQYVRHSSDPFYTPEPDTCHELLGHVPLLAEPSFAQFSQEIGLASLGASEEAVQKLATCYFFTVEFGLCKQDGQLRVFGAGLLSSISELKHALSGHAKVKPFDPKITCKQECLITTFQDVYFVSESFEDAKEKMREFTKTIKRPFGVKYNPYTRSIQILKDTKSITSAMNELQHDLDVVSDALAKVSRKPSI
procedure_details: Biochemical in vitro assay using fluorescence readout (TPH1 enzyme activity)
details: Table 1, mean where determined several times
// pIC50 lookup, one value per entry
In plain terms, pIC50 is the concentration in mol/L turned into minus its base-10 logarithm.

Enquiry: Return the recorded pIC50 value; entry: CCc1nc(NS(C)(=O)=O)ccc1OCC(=O)N1CCc2nc3n(c2[C@@H]1c1sc(C)nc1C)CCCC3
Return: 8.22

----------
subject_of_test: full length human TPH1 (Homo sapiens, UniProt P17752)
Construct: To generate the enzyme, full length human TPH1 is cloned into the plasmid pET20b(+); made in house; host or cells: E. coli
procedure_details: Biochemical in vitro assay using fluorescence readout (TPH1 enzyme activity)
details: Table 1, mean where determined several times
readout: IC50 (µM)
Reply with just the number (in µM).

Some compounds with recorded IC50:
> print(dat)
                                   compound  unit.descriptor  meas.value
1  CS(=O)(=O)Nc1ccc(OCC(=O)N2CCc3nc4n(c3C2c2ccc(OCCO)cc2F)CCCC4)c(Cl)n1 (stereo not shown)               µM       0.021
2  CN(C)C(=O)c1ccc(OCC(=O)N2CCc3nc4n(c3C2c2ccc(Cl)cc2F)CCCC4)c(Cl)n1 (stereo not shown)               µM       0.015
3  CC(=O)N1CCn2c(nc3c2C(c2cc(Cl)ccn2)N(C(=O)COc2ccc(N4CCOCC4)nc2Cl)CC3)C1 (stereo not shown)               µM       0.048

Enquiry: Return the recorded IC50 value; entry: Cc1cnc(C2c3c(nc4n3CCCC4)CCN2C(=O)COc2ccc(N(C)S(C)(=O)=O)nc2Cl)c(F)c1 (stereo not shown)
Return: 0.044

Enquiry: Return the recorded IC50 value; entry: O=C(NC1CC1)c1ccc(OCC(=O)N2CCc3nc4n(c3C2c2ccc(OCCO)cc2F)CCCC4)c(Cl)n1 (stereo not shown)
Return: 0.054

Enquiry: Return the recorded IC50 value; entry: Cc1cnc(C2c3c(nc4n3CCCC4)CCN2C(=O)COc2ccc(-c3ncco3)nc2Cl)c(F)c1 (stereo not shown)
Return: 0.041

Enquiry: Return the recorded IC50 value; entry: CC(C)N(C)C(=O)c1ccc(OCC(=O)N2CCc3nc4n(c3C2c2ccc(Cl)cc2F)CCCC4)c(Cl)n1 (stereo not shown)
Return: 0.055
